Parameter TGI: see the listing below.
test system: SW-620 colon; assay: NCI tumour cell line growth inhibition, 48 h
value_kind: TGI

{"molecule": "Fc1ccc2c(c1)C1=C(CO2)C(c2ccc(Cl)cc2)NC(=S)N1 (stereo not drawn)", "value_kind": "TGI", "observed_result": "93.8 µM"}
{"molecule": "COc1c(Cl)ccc2c(-c3nc4cc(Cl)c(F)cc4s3)cc(=O)oc12", "value_kind": "TGI", "observed_result": "> 100 µM"}
{"molecule": "CNC1=C(C(=O)OC)SC(c2ccccc2)(c2ccccc2)SC1", "value_kind": "TGI", "observed_result": "> 100 µM"}
{"molecule": "Nc1c(C(=O)N/N=C/c2ccc(-c3cc(Cl)c(Cl)cc3Cl)o2)cnn1-c1ccnc2c(C(F)(F)F)cccc12", "value_kind": "TGI", "observed_result": "> 100 µM"}
{"molecule": "C=C1C(OC/C=C/COC2O[C@@H]3O[C@@]4(C)CC[C@H]5[C@H](C)CC[C@@H](C2=C)[C@@]35OO4)O[C@@H]2O[C@@]3(C)CC[C@H]4[C@H](C)CC[C@@H]1[C@@]24OO3 (stereo partly drawn)", "value_kind": "TGI", "observed_result": "23.6 µM"}
{"molecule": "Cc1ncc(C(=O)Nc2ccc(CN3CCN(C)CC3)c(C(F)(F)F)c2)cc1C#Cc1c(N)ncc2ccccc12", "value_kind": "TGI", "observed_result": "0.754 µM"}
{"molecule": "Cc1cc(O)cc(O)c1C(=O)O[C@]1(C)C(=O)C=C2C=C(/C=C/C(=O)O)OC=C2C1=O", "value_kind": "TGI", "observed_result": "> 100 µM"}
{"molecule": "CC(=O)OC1CCC2C(=CCC3C2(C)C(=O)CC2(C)C(C4(C)OC(C(C)C)=CC4=O)C(O)CC32C)C1(C)C (stereo not drawn)", "value_kind": "TGI", "observed_result": "> 100 µM"}

---

tested on: COLO 205 colon; assay: NCI tumour cell line growth inhibition, 48 h
value_kind: TGI (µM)

{"compound": "COC(=O)[C@H](C)NC(=O)[C@@H](OC)[C@@H]1Cc2cc3cc(OC4CC(OC5CC(O)C(O)C(C)O5)C(O)C(C)O4)c(C)c(O)c3c(O)c2C(=O)[C@H]1OC1CC(OC2CC(OC3CC(C)(O)C(O)C(C)O3)C(O)C(C)O2)C(O)C(C)O1 (stereo partly drawn)", "censoring_qualifier": "=", "observed_result": 1.09}
{"compound": "Cc1cc2oc(C)c(S(=O)(=O)NC(=O)Nc3ccc(Cl)cc3)c(=O)c2c(=O)o1", "censoring_qualifier": ">", "observed_result": 100}
{"compound": "CCCCCN(CCCCC)CC(C)(C)C(O)c1ccc(OC)c2ccccc12 (stereo not drawn)", "censoring_qualifier": "=", "observed_result": 40.6}

---

test system: HCC-2998 colon; experiment: NCI tumour cell line growth inhibition, 48 h
value_kind: TGI

{"compound": "COc1c(Cl)ccc2c(-c3nc4cc(Cl)c(F)cc4s3)cc(=O)oc12", "observed_result": "> 100 µM"}
{"compound": "O=C1c2ccccc2-c2c1c1ccc([N+](=O)[O-])cc1c(=O)n2CCCNCCO", "observed_result": "2.13 µM"}
{"compound": "Cc1ccc(C=NC23CC4CC(CC(C4)C2)C3)cc1", "observed_result": "> 100 µM"}
{"compound": "Nc1nc(=O)n(C2OC(CO)C(O)C2O)c2ncc(-c3ccc(-c4ccccc4)cc3)nc12 (stereo unspecified)", "observed_result": "> 100 µM"}
{"compound": "Cn1c(=O)c(C(=O)NC(=O)NCCCCCOC(=O)CCCCCCCCCCC(=O)OCCCCCNC(=O)NC(=O)c2cn(Cc3ccccc3)c(=O)n(C)c2=O)cn(Cc2ccccc2)c1=O", "observed_result": "> 100 µM"}
{"compound": "O=C(Nc1nc2ccc([N+](=O)[O-])cc2s1)C(=O)C(C(=O)c1ccncc1)C1OC(=O)c2ccccc21 (stereo unspecified)", "observed_result": "> 100 µM"}
{"compound": "COc1nc2c(nc(N)n2C2OCC(O)C(O)C2O)c(=O)n1C (stereo unspecified)", "observed_result": "> 100 µM"}
{"compound": "CCc1ccc2nccc(NCCCN(C)C)c2c1[N+](=O)[O-]", "observed_result": "> 100 µM"}
{"compound": "CC(C)C(=O)[O-].CC(C)C(=O)[O-].N.N.N.N.[Co+3].[O-][Cl+3]([O-])([O-])[O-]", "observed_result": "> 100 µM"}
{"compound": "COP(=O)(O)C(N)Cc1c[nH]c2ccccc12 (stereo unspecified)", "observed_result": "> 100 µM"}
{"compound": "N#CC[N+]1(Cc2ccccn2)CCCC1", "observed_result": "> 100 µM"}
{"compound": "CCNNC(=O)[C@@H]1[C@H](c2cc(OC)c(OC)c(OC)c2)c2cc3c(cc2[C@H](O)[C@H]1CO)OCO3", "observed_result": "> 22.2 µM"}
{"compound": "COc1cccc(C2SC(C)C(=O)N2CCc2cccs2)c1 (stereo unspecified)", "observed_result": "12.3 µM"}
{"compound": "CCOC(=O)c1ccc(N2C(=O)Cc3ccccc3C2=O)cc1", "observed_result": "> 100 µM"}
{"compound": "CC(=O)[O-].[Zn].c1ccc(/C(=N\\Nc2ccccn2)c2ccccn2)cc1", "observed_result": "2.07 µM"}
{"compound": "NS(=O)(=O)c1ccc(-n2ncc3c(Nc4ccccc4)ncnc32)cc1", "observed_result": "57.7 µM"}
{"compound": "Nc1nccc2c1ncn2C1OC(CO)C(O)C1O (stereo unspecified)", "observed_result": "> 100 µM"}
{"compound": "NCCCN1CCN(CCCNc2nc3ccccc3c3[nH]c4ccccc4c23)CC1", "observed_result": "0.758 µM"}
{"compound": "COc1ccc2c(c1)CCN1CCCc3ccccc3C21 (stereo unspecified)", "observed_result": "80.8 µM"}
{"compound": "CC1(C)CC([P+](c2ccccc2)(c2ccccc2)c2ccccc2)=NN1", "observed_result": "> 100 µM"}
{"compound": "CC(NC(=O)C(=O)N/N=C1\\C[C@@H](c2ccccc2)Nc2ccccc21)c1ccccc1 (stereo partly specified)", "observed_result": "> 100 µM"}

Recorded values, source PubChem BioAssay (NCI).
